system under test: R24M PTP1B (Homo sapiens, UniProt P18031, R24M)
Sequence (P18031 1-321 R24M): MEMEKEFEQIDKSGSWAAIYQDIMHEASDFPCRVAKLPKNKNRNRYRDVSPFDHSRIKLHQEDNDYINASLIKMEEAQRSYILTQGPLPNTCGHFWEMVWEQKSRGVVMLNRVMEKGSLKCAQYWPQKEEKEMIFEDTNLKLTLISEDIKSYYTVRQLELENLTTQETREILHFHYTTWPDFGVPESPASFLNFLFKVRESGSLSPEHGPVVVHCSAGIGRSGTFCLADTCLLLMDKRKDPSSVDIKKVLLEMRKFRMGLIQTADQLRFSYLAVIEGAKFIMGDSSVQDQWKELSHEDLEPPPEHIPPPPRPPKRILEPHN
test summary: PTP assay, R24M PTP1B
Format: biochemical
conditions used: R24M PTP1B aa 1–321; pH 7.4
Measured kcat, listed per entry.
Report the figure in s⁻¹ without appending any unit label.

* AApYADDAA | 38
* DPRGIpYDQVAG | 36
* AApYIRKRA | 34
* AApYAADDA | 38
* AApYAAADD | 37

Q: Entry EEDNAWpYAA has what kcat?
Result: 35

Q: Entry AApYDDIDE has what kcat?
Result: 42

Q: Entry Ac-AWGPLpYDEVQM-NH2 has what kcat?
Result: 36
